# target: D444S-EAAC1 (Oryctolagus cuniculus, UniProt P31597, D444S)
# protocol-notes: Blockade of sodium-dependent transient currents
# Type: cell-based, rabbit
# cond: D444S; 10 mM compound; at −100 mV
metric: Decay time of transient currents blocked
Quote the value and follow it with the unit of measurement.

>>> df
                                   compound    measurement
0  N[C@@H](CC(=O)O)C(=O)O [L-Aspartate, L-aspartate]  12.2 ± 0.6 ms
1  N[C@H](CC(=O)O)C(=O)O [D-Aspartate, D-aspartate]  12.8 ± 0.6 ms
2  N[C@@H](CCC(=O)O)C(=O)O [L-Glutamate, L-glutamate]  11.0 ± 1.2 ms

Now let's try a different one.
Problem: Could you please provide reported Decay time of transient currents blocked for O=C(O)CCC(=O)O [Succinate, succinate] ? Thanks!
Solution: 9.9 ± 0.7 ms

---

# target: D444S-EAAC1 (Oryctolagus cuniculus, UniProt P31597, D444S)
# Sequence (P31597 1-524 D444S): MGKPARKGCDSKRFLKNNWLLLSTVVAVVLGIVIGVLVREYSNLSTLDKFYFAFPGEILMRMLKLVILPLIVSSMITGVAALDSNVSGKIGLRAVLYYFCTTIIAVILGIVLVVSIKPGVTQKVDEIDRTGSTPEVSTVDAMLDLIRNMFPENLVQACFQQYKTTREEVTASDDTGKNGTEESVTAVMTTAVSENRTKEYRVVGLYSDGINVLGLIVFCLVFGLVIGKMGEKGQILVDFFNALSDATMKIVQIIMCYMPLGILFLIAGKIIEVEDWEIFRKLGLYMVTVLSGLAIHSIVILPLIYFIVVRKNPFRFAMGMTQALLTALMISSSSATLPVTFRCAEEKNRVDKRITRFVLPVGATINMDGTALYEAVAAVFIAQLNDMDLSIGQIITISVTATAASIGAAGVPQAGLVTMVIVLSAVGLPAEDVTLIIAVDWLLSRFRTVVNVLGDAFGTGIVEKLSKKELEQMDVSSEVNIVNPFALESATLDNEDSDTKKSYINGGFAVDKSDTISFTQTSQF
# protocol-notes: Blockade of sodium-dependent transient currents
# Format: cell-based, rabbit
# cond: read-out: IC50 for substrates/blockers of charge movements; D444S; Xenopus oocytes; mean ± SEM
metric: pIC50
One number for each entry, as −log10 of the molar value.

Example cases with answers are listed next.
>>> df
                                   compound                                    target  measurement
0  N[C@@H](CC(=O)O)C(=O)O [L-Aspartate, L-aspartate]  D444S-EAAC1 (Oryctolagus cuniculus, UniProt P31597, D444S)         3.89
1     O=C(O)CCC(=O)O [Succinate, succinate]  D444S-EAAC1 (Oryctolagus cuniculus, UniProt P31597, D444S)         2.87

Moving on to the next compound.
Problem: // Input: N[C@H](C(=O)O)[C@H](OCc1ccccc1)C(=O)O (racemic) [TBOA, DL-threo-β-benzyloxyaspartate] . Output its pIC50 only.
Solution: 4.51

---

Answer each item with its documented Decay time of transient currents blocked.
# target: D444C-EAAC1 (Oryctolagus cuniculus, UniProt P31597, D444C)
# protocol-notes: Blockade of sodium-dependent transient currents
# Assay type: cell-based, rabbit
# cond: D444C; 10 mM compound; at −100 mV
Numbers only, in ms.

>>> print(df.to_string())
                                   compound  measurement
0  N[C@@H](CC(=O)O)C(=O)O [L-Aspartate, L-aspartate]         19.3

# return Decay time of transient currents blocked for each item in the list
1. O=C(O)CCC(=O)O [Succinate, succinate]
2. N[C@H](CC(=O)O)C(=O)O [D-Aspartate, D-aspartate]
3. N[C@@H](CCC(=O)O)C(=O)O [L-Glutamate, L-glutamate]

Solution:
[15.7, 18.4, 17.7]

---

# target: D444C-EAAC1 (Oryctolagus cuniculus, UniProt P31597, D444C)
# protocol-notes: Blockade of sodium-dependent transient currents
# Type: cell-based, rabbit
# cond: read-out: IC50 for substrates/blockers of charge movements; D444C; Xenopus oocytes; mean ± SEM
Please respond with reported IC50 for every item in the list.
Give bare numbers, in µM.

Example compounds with recorded IC50:
                                   compound  metric  readout_units  measurement
0     O=C(O)CCC(=O)O [Succinate, succinate]    IC50             µM          840
1  N[C@@H](CC(=O)O)C(=O)O [L-Aspartate, L-aspartate]    IC50             µM           12

Then this compound:
Problem: Give the value of IC50 reported for the following: N[C@H](C(=O)O)[C@H](OCc1ccccc1)C(=O)O (racemic) [TBOA, DL-threo-β-benzyloxyaspartate]
Solution: 1.9

---

# target: D444C-EAAC1 (Oryctolagus cuniculus, UniProt P31597, D444C)
# protocol-notes: Blockade of sodium-dependent transient currents
# Type: cell-based, rabbit
metric: IC50 (µM)
Answers are plain numbers, in µM.

# return IC50 for each item in the list
1. O=C(O)CCCC(=O)O [Glutarate, glutarate]
2. N[C@@H](CCC(=O)O)C(=O)O [L-Glutamate, L-glutamate]
3. N[C@H](CC(=O)O)C(=O)O [D-Aspartate, D-aspartate]

Solution:
[260, 29, 8]

---

# target: D444S-EAAC1 (Oryctolagus cuniculus, UniProt P31597, D444S)
# protocol-notes: Blockade of sodium-dependent transient currents
# Type: cell-based, rabbit
metric: IC50
Respond with the figure and its unit, in that order.

                                   compound  measurement
0  N[C@H](CC(=O)O)C(=O)O [D-Aspartate, D-aspartate]      1370 µM

Problem: Identify measured IC50 corresponding to N[C@@H](CCC(=O)O)C(=O)O [L-Glutamate, L-glutamate]
Solution: 1220 µM
